TARGET: T1, recombinant ectodomain of IL-1 receptor type I (IL-1RI) (UniProt P14778 18-336)
T1 construct: interleukin 1 receptor type I, ectodomain; No catalogue number, limits or tag are printed for the bought protein; also called sIL-1RI; soluble IL-1 receptor type I; source: bought: R&D Systems
T1 sequence (looked up): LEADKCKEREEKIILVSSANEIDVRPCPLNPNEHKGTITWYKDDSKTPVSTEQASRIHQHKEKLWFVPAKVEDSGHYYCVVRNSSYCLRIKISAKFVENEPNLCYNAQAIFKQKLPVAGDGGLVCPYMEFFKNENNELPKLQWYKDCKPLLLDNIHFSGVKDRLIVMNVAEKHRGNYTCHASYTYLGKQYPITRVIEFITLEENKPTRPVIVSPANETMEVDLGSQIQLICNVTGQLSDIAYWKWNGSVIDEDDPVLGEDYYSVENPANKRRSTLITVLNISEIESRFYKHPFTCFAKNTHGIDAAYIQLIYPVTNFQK
RUN_DESCRIPTION: SPR; Biacore 2000; about 2,500 to 3,000 RU of Ilantide-t, IL-1β or IL-1Ra immobilised on a CM4 sensor chip; IL-1RI ectodomain (or NCAM Ig1-Ig2 as negative control) injected; 25°C, 10 mM sodium phosphate pH 7.4, 150 mM NaCl; apparent Kd
PROTOCOL_CONDITIONS: both partners purified
No end group written: not given here.
METRIC: Kd (nM)

binder="SGRKSSKMQA (also: dendrimer of four monomers coupled to a lysine backbone, ten residues from the N terminus of human IL-1 receptor antagonist (IL-1Ra); Four copies of the peptide on a lysine backbone; also called IL-1 antagonistic peptide (dendrimer form); source: synthetic peptide; bought: Schafer-N; further purified by gel filtration (Sephadex G-10)) [Ilantide-t]" unit_label=nM numeric_result=27.5
